Test system: BT-549
Test: NCI tumour cell line growth inhibition, 48 h
Activity calls are given as the source filed them. No stated cut-off is given here; in the data, active = GI50 up to about 1.1 µM and inactive = higher.
Select the correct class. Options are class 1 (active), class 0 (inactive) and nothing else.

Worked examples follow.
CC1(C)C2CCC(CN)(C2)C1O (stereo not given) : class 0
COc1ccc(-c2cc(-c3ccccc3)n(C3OC(COC(C)=O)C(OC(C)=O)C(OC(C)=O)C3OC(C)=O)c(=S)c2C#N)cc1 (stereo not given) : class 0
[O-][S+]1SC(=S)C2C=CC=CC21 (stereo not given) : class 0
Cc1cc(=O)n2c3c(c4c(cc13)c(CN(C)C)cc(=O)n4C)OC2 : class 0
CN(C(=O)Nc1ccc(Cl)c(Cl)c1)C1CCCC[C@@H]1N1CCCC1 (stereo not given in full) : class 0

Input: What did this assay record as the result for COC(=O)[C@@]1(NC(=O)C(CC(=O)OC(C)(C)C)NC(=O)OC(C)(C)C)C[C@H]1C (stereo not given in full) ?
Output: class 0

Input: What was the test verdict on CC1=CC[C@H](C(C)C)C(C(O)[C@@H](C)O[Si](c2ccccc2)(c2ccccc2)C(C)(C)C)C1=O (stereo not given in full) ?
Output: class 0

###

Examples of compounds with documented GI50 follow.
Test system: SN12C
Assay: NCI tumour cell line growth inhibition, 48 h
The source made the active and inactive calls. Rule as the data show it: active = GI50 up to about 1.1 µM and inactive = higher.

Consider the following illustrative entries.
CC(=O)C1=C(C)O[C@@H]2O[C@H](COCc3ccccc3)[C@@H](OCc3ccccc3)[C@H](O)[C@@H]2S1 : 19.2 µM (inactive)
COc1cc(NC=C2C(=O)OC(C)(C)OC2=O)c(OC)c(C)c1OC : > 100 µM (inactive)
CCOC(=O)/C=C/n1c2ccccc2c(=O)c2ccccc21 : > 100 µM (inactive)
O=C1C=CC(=O)c2c(Cl)ccc(O)c21 : 21.1 µM (inactive)
CCOc1cc(CCNC)c2c(ccc3ccc(OC)c(O)c32)c1OC : 16.1 µM (inactive)

Input: Fill in: GI50 of CSc1c(C(=O)Nc2ccc(Cl)cc2)c(N)n(N)c(=O)c1C#N is ___
Output: > 100 µM (inactive)

Input: Recorded GI50 of COC(=O)[C@]1(C)CCC[C@@]2(C)C1CCC1=C[C@@]3(C(C)C)CC[C@]12OO3 (stereo partly drawn) , please.
Output: 31.3 µM (inactive)

Input: Entry C[C@]12OC(=O)[C@]3(O)CC[C@H]4[C@@H](C[C@@H](O)[C@@]5(Cl)CC=CC(=O)[C@]45C)[C@]45OCC6C(=O)O[C@@H]1C[C@@]6(C)[C@H](C4=O)[C@@]32O5 (stereo partly drawn) has what GI50?
Output: 1.86 µM (inactive)

Input: Any idea what its GI50 is? The compound is O=C1/C(=C\c2ccc([N+](=O)[O-])o2)SC2NC(COc3ccc(Cl)cc3)=NN12 (stereo not drawn)
Output: 14 µM (inactive)

Input: Suppose we examine the compound CC(C)(C)c1cc(OCc2nnc3sc(Cc4ccccc4)nn23)c(Cl)cc1OCc1nnc2sc(Cc3ccccc3)nn12 ; what GI50 value has been reported?
Output: 44.6 µM (inactive)

Input: Query (compound): O=C(Nc1nnc(-c2c(Cl)c(Cl)c(Cl)c(Cl)c2-c2nc3cc(C(=O)c4ccccc4)ccc3[nH]2)o1)c1ccccc1 ; field requested: GI50
Output: 15.3 µM (inactive)

Input: Entry under review: CCCCN(CCCC)C(=O)C(=O)CC(=O)c1ccc(Br)cc1 . Reported GI50?
Output: > 100 µM (inactive)

Input: Reported GI50, compound O=c1nc(NC(c2ccccc2)(c2ccccc2)c2ccccc2)ccn1CCCl : ____
Output: 17.9 µM (inactive)

Recorded values, source ChEMBL document CHEMBL1201862.
